Provenance of the data: patent US7579353B2

Assay: Compound solubility determination (gross and equilibrium solubility; FaSSIF, FeSSIF, pH 7.4 PBS, pH 1.0 0.1N HCl, pH 4.5 sodium citrate)
Type: physicochemical
Conditions: sodium citrate 0.5M solution, aqueous buffer, thermodynamic from solid; pH 4.5 (Na citrate); read-out: Solubility at pH 4.5 (Na citrate)
readout label: solubility at 24 h

1) Cc1[nH]c(C)c(-c2ccc(-c3cc(C(F)(F)F)ccc3Cl)nc2)c(=O)c1Cl [Example 57] ... < 1 µg/mL
2) Cc1[nH]c(C)c(-c2ccc(Oc3ccc(OC(F)(F)F)cc3)cc2)c(=O)c1Cl [comparator Y] ... < 1 µg/mL
3) Cc1[nH]c(C)c(-c2cnc(-c3ccc(OC(F)(F)F)cc3)nc2)c(=O)c1Cl [Example 51] ... < 1 µg/mL

Shifting focus to the molecule that follows.
Problem: Fill in solubility at 24 h for record Cc1[nH]c(C)c(-c2ccc(-c3ccccc3C(F)(F)F)nc2)c(=O)c1Br [Example 18]
Solution: 10 to 50 µg/mL
